Assign PBM binding z-score to each entry below.
System: VDR:RXRa (NR concentration 270 nM, RXRa partner concentration 90 nM)
test.name: PBM binding z-score (relative to random genomic background probes); higher = stronger binding; sequences stand for … in GC…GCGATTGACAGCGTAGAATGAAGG
Answers are plain numbers.

Below, each entry is followed by its recorded PBM binding z-score result.
In [3]: df
Out[3]:
                     polymer_sequence       assay_endpoint  measured_value
0  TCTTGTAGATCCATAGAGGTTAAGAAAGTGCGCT  PBM binding z-score            1.69
1  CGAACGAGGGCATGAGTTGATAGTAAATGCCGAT  PBM binding z-score            1.17
2  TCTGCTAGGTCAACGATAGTCAGCTAATCTGCTA  PBM binding z-score            1.24

Quick request: PBM binding z-score for each listed item, please.
1. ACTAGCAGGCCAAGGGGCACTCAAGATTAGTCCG
2. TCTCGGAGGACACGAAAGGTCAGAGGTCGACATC
3. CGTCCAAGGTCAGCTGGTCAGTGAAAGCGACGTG

Response:
1: -0.375; 2: 4.52; 3: 2.66

The measured values listed here are drawn from the supplement of paper PMC6555819.
